Measured Target: T1, human iRhom2, endogenously expressed (human, UniProt Q6PJF5 1-856)
T1 sequence: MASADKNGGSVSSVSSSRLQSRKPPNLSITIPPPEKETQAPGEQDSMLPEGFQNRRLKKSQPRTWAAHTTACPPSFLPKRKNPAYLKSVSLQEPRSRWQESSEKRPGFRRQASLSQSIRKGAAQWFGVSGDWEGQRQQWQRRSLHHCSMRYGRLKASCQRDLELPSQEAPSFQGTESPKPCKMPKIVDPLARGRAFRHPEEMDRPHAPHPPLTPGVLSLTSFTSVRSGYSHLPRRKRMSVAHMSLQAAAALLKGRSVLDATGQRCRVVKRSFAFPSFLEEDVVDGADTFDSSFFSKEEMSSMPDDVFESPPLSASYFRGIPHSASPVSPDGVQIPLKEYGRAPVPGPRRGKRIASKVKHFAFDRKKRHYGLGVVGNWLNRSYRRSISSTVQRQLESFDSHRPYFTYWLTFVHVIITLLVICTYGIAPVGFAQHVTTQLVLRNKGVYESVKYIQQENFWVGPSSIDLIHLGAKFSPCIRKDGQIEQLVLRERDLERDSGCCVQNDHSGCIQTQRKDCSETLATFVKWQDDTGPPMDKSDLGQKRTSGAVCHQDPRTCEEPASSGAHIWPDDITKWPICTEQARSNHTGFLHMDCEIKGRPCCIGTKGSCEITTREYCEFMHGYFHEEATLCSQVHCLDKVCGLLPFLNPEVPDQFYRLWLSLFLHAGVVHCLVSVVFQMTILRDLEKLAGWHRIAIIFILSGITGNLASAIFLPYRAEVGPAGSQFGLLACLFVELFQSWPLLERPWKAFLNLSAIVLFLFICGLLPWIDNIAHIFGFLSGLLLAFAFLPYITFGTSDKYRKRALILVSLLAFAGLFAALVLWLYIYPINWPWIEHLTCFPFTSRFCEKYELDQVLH
Assay Explanation: cell-based or functional assay
Each entry below carries its reported PMA-induced TGFα release from PC3 cells, percent inhibition, 1 µg/ml.
Assay Metric: PMA-induced TGFα release from PC3 cells, percent inhibition, 1 µg/ml (%)

INSERT INTO results (binder, experimental_result) VALUES
  ('antibody 43 (antibody, V domains shown, mouse IgG, kappa light chain; also called clone #43; purified antibody 43) VH: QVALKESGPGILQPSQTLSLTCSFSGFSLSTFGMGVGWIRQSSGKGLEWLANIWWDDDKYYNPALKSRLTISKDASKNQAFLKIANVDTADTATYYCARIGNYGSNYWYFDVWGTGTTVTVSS VL: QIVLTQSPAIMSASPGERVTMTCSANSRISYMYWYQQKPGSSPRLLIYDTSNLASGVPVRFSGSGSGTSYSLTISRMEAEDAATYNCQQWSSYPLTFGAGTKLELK', 12.4),
  ('antibody 16 (antibody, V domains shown, mouse IgG, kappa light chain; also called clone #16; purified antibody 16) VH: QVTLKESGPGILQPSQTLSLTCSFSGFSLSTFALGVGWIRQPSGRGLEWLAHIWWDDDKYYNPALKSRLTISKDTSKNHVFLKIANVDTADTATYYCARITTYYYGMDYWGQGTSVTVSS VL: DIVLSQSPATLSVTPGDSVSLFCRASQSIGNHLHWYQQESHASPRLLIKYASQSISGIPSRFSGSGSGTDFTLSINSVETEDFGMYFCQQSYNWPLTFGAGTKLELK', 13.9);
